From: patent US20160228506A1

# assayName: Thermostability, temperature of aggregation (ProteoStat Thermal Shift)
# Format: physicochemical
# testContext: Table E31D; heated 25° C. to 95° C.

molecule	Tagg (pH 7.1)
SEQID-00099: nutritive polypeptide (protein, listed as Thermosynechococcus elongatus) MNQSEILEKVKAIVADQLSVDPEKVVPEASFAEDLNADSLDSVELIMALEEEFGVEIPDEEAEKLKTVQDVLDFINNKVAA	64
SEQID-00226: nutritive polypeptide (protein, listed as Bos taurus) QLQALQAQLTDTKKKVDDDLGTIENLEEAKKKLLKDVEVLSQRLEEKALAYDKLEKTKTRLQQELDDLLVDLDHQRQIVSNLEKKQKKFDQLLAEEKNIS	>95
SEQID-00102: nutritive polypeptide (protein, listed as Lactobacillus johnsonii) MTEEEIFNKIADMISERFSIDRDKITKDLNFQNDLDADSIDFVELVMDLEDTFGAEIPDDDAEKLQTVGEAVEYIKSHQN	>95
SEQID-00265: nutritive polypeptide (protein, listed as Bos taurus) SEGDRLRVELAEKANKLQNELDNVSTLLEEAEKKGIKFAKDAAGLESQLQDTQELLQEETRQKLNLSSRIRQLEEERSSLQEQQEEEEEARRSLEKQLQALQAQLTDTKKKVDDDLGTIENLEEAKKKLLKDVEVLSQRLEEKALAYDKLEKTKTRLQQELDDLLVDLDHQRQIVSNLEKKQKKFDQLLAEEKNISARYAEERDRAEAEAREKETKALSLARALEEALEAREEAERQNKQLRADMEDLMSSKDDVGKNVHELEKSKRALE	>95
SEQID-00269: nutritive polypeptide (protein) DLKKKLDDDLGTLENLEELKKKLLKDLELLSQRLEELALAYDKLEKTKTRLQQELDDLLLDLDHQ	>95
SEQID-00610: protein of the 168 nutritive polypeptide library (protein, listed as Saccharomyces cerevisiae, source: /note="strain ATCC 204508 / S288c", protein of the 168 nutritive polypeptide library) MVLEATVLVIDNSEYSRNGDFPRTRFEAQIDSVEFIFQAKRNSNPENTVGLISGAGANPRVLSTFTAEFGKILAGLHDTQIEGKLHMATALQIAQLTLKHRQNKVQHQRIVAFVCSPISDSRDELIRLAKTLKKNNVAVDIINFGEIEQNTELLDEFIAAVNNPQEETSHLLTVTPGPRLLYENIASSPIILEEGSSGMGAFGGSGGDSDANGTFMDFGVDPSMDPELAMALRLSMEEEQQRQERLRQQQQQQDQPEQSEQPEQHQDK	54.5
SEQID-00220: nutritive polypeptide (protein, listed as Bos taurus) DTKKKVDDDLGTIENLEEAKKKLLKDVEVLSQRLEEKALAYDKLEKTKTRLQQELDDLLVDLDHQ	>95
